Answer each item with its documented selectivity ratio.
assay-overview: Selectivity index, ratio of CC50 for HFF cells to EC50 for Cowpox virus Brighton
Type: toxicity, cell-based
applied-conditions: human, read-out: Ratio CC50/EC50
One number for each entry.

Solved entries (count: 2):
| test-smiles | selectivity ratio |
| --- | --- |
| CCCCCCCCCCCCCCCCOCCCOP(=O)(O)CO[C@H](CO)Cn1cnc2c(N)ncnc21 | 485 |
| CCCCCCCCCCCCCCCCCCOCCOP(=O)(O)CO[C@H](CO)Cn1cnc2c(N)ncnc21 | 75 |

Please turn your attention to the following entry.
Give the measured selectivity ratio of CCCCCCCCCCCCCCCCOCCCOP(=O)(O)CO[C@H](CO)Cn1ccc(N)nc1=O .
52
